Could you please report measured pKi for the items listed next?
- assay target: ITK (Homo sapiens, UniProt Q08881)
- Construct: purchased Invitrogen PV3875
- test protocol: ITK enzyme assay (Caliper or LCMS peptide phosphorylation)
- Assay type: biochemical
- experimental context: purified ITK (Invitrogen PV3875), 20 μM ATP, Ki by Morrison's quadratic equation
By convention, pKi is the negative base-10 log of a molar concentration.

Lab request: please report pKi under test system ITK (Homo sapiens, UniProt Q08881) for CC12Cc3[nH]nc(C(=O)Nc4cnn(C(c5ccccc5)C5CCCCS5(=O)=O)c4)c3CC1C2 (single isomer, unassigned) [Example 143c] 8.70

Param readout = pKi; param system = ITK (Homo sapiens, UniProt Q08881); param query = CN(C)CCC(c1ccccc1)n1cc(NC(=O)c2n[nH]c3c2C2CC2CC3)cn1 (single isomer, unassigned) [Example 26b] ; response: value 7.34

====

- assay target: ITK (Homo sapiens, UniProt Q08881)
pKi: −log10 of the molar value.
pKi below 8 gives not fulfilled; pKi at or above it gives fulfilled.

Given CC1(C)CCc2c(C(=O)Nc3cnn(C(c4cccnc4)C4CCCCS4(=O)=O)c3)n[nH]c2C1 (single isomer, unassigned) [Example 144a] , state whether its pKi is at least 8. fulfilled

For this compound, is measured pKi 8 or higher? CN1CCN(CC(c2ccccc2)n2cc(NC(=O)c3n[nH]c4c3CCC(C)(C)C4)cn2)C1=O (single isomer, unassigned) [Example 131a] fulfilled

State whether the measured pKi reaches 8, counting equality as reaching it, for CN1CC(C(c2ccccc2)n2cc(NC(=O)c3n[nH]c4c3CCC(C)(C)C4)cn2)C1 (single isomer, unassigned) [Example 38a] fulfilled

For this compound, is measured pKi 8 or higher? CC1(C)CCc2c(C(=O)Nc3cnn(C(c4cccc(S(C)(=O)=O)c4)C4CCOC4)c3)n[nH]c2C1 (single isomer, unassigned) [Example 126a] fulfilled

Is pKi for CC1(C)CCc2c(C(=O)Nc3cnn(C(c4cccc(S(C)(=O)=O)c4)C4CCOC4)c3)n[nH]c2C1 (single isomer, unassigned) [Example 126b] at or above 8? fulfilled

Is it the case that CC1CC(C(c2ccccc2)n2cc(NC(=O)c3n[nH]c4c3CCC(C)(C)C4)cn2)CCS1(=O)=O (single isomer, unassigned) [Example 139e] has pKi reaching or exceeding 8? fulfilled

Determine whether measured pKi meets or exceeds 8 for CC1(N2CCOCC2)CCc2c(C(=O)Nc3cnn(Cc4ccccc4)c3)n[nH]c2C1 (single isomer, unassigned) [Example 149b] not fulfilled

Given the entry O=C(Nc1cnn(Cc2ccccc2)c1)c1n[nH]c2c1CC1(COC1)C2 [Example 82] , answer whether its pKi meets or surpasses 8. not fulfilled

# check: pKi of O=C(Nc1cnn(Cc2ccccc2)c1)c1n[nH]c2c1C1CC1CC2 (single isomer, unassigned) [Example 23b] is greater than or equal to 8 not fulfilled

====

Target chain: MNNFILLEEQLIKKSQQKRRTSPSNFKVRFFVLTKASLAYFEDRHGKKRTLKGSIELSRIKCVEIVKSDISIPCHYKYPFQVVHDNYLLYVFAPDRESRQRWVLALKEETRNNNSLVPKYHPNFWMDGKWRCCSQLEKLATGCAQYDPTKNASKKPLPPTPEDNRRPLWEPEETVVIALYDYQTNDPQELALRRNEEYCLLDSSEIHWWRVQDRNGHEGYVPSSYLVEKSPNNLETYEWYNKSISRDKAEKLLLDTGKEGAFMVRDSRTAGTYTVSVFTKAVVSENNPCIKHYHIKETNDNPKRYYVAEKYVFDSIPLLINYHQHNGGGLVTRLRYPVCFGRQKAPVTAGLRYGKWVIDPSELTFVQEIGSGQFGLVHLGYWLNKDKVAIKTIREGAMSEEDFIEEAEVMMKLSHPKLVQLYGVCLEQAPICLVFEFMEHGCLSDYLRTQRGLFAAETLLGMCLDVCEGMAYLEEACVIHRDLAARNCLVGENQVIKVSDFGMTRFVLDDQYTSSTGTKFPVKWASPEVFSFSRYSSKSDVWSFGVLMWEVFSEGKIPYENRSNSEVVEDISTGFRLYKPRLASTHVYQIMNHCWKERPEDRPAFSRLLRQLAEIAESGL
endpoint: log10(Ki) (log10 of the value in nM)
The common logarithm of Ki in nM is what is listed.

Need log10(Ki), item CC1(C)CCc2c(C(=O)Nc3cnn(C(c4cccc(S(C)(=O)=O)c4)C4CCOCC4)c3)n[nH]c2C1 (single isomer, unassigned) [Example 154a] -1.00

What value of measured log10(Ki) is listed for `O=C(Nc1cnn(Cc2ccccc2)c1)c1n[nH]c2c1CC(F)(F)CC2` ? 1.56

I would be grateful if you could share the reported log10(Ki) for CC12Cc3c(C(=O)Nc4cnn(C(c5ccccc5)C5CCS(=O)(=O)CC5)c4)n[nH]c3C1C2 (single isomer, unassigned) [Example 152b] . 0.48

Which value of log10(Ki) has been reported for CC1(C)CCc2c(C(=O)Nc3cnn(C(c4cccnc4)C4CCCCS4(=O)=O)c3)n[nH]c2C1 (single isomer, unassigned) [Example 144c] in the records? -1.00

Any idea what its log10(Ki) is? The compound is CN1CCC(C(c2ccccc2)n2cc(NC(=O)c3n[nH]c4c3CCC(C)(C)C4)cn2)CC1 (single isomer, unassigned) [Example 43b] 0.79

Quick check: log10(Ki) of CC1(C)Cc2c(C(=O)Nc3cnn(Cc4ccccc4)c3)n[nH]c2CCO1 [Example 71b] ? 2.90

Query (compound): CC1(C)CCc2c(C(=O)Nc3cnn(C(CS(C)(=O)=O)c4cccnc4)c3)n[nH]c2C1 (single isomer, unassigned) [Example 73a] ; field requested: log10(Ki) -0.15

// query log10(Ki) value for entry CC1(C)CCc2c(C(=O)Nc3cnn(C(c4cccnc4)C4CS(=O)(=O)C4)c3)n[nH]c2C1 (single isomer, unassigned) [Example 117b] 0.78

Data request, read-out log10(Ki), for CN(C)CCC(c1ccccc1)n1cc(NC(=O)c2n[nH]c3c2C2CC2CC3)cn1 (single isomer, unassigned) [Example 26c] 1.34

Name the recorded log10(Ki) for Cn1ccnc1C(c1cccs1)n1cc(NC(=O)c2n[nH]c3c2CCC(C)(C)C3)cn1 (single isomer, unassigned) [Example 114b] . 1.08

Which value of log10(Ki) has been reported for N#Cc1cccc(Cn2cc(NC(=O)c3n[nH]c4c3CCC(c3cncnc3)C4)cn2)c1 (single isomer, unassigned) [Example 4a] in the records? 2.56

What value of log10(Ki) has been recorded for this entry: CC1(C)CCc2c(C(=O)Nc3cnn(C(CCN)c4ccccc4)c3)n[nH]c2C1 (single isomer, unassigned) [Example 42b] -0.05
